# PROTOCOL_SUMMARY: High Throughput (HT) Metabolic Stability Panel, mouse liver microsomes
# MEASUREMENT_PARAMETERS: 0.5 μM compound, mouse liver microsomes, 10 min incubation
Please go through the items and note down their 0.5 μM MsLM (% Remaining).
Field note: include the unit after the figure.

# example entries with known answers
COMPOUND	0.5 μM MsLM (% Remaining)
COc1cccc2c1NC(=O)[C@@H](NC(=O)[C@H](CCC(F)(F)F)[C@H](CCC(F)(F)F)C(N)=O)N=C2c1ccccc1	100%
CN1C(=O)[C@@H](NC(=O)[C@H](CC(F)(F)F)[C@H](CCC(F)(F)F)C(N)=O)N=C(c2ccccc2)c2ccccc21	91%
CN1C(=O)[C@@H](NC(=O)[C@H](CCC(F)(F)F)[C@H](CCC(F)(F)F)C(N)=O)N=C(c2ccccc2)c2ccc(F)cc21	100%

Look up 0.5 μM MsLM (% Remaining) for the entries below, preserving their order.
1. CC(C)C[C@@H](C(=O)N[C@H]1N=C(c2ccccc2)c2ccccc2N(C)C1=O)[C@H](CCC(F)(F)F)C(N)=O [Comparative Compound 22, reference compound]
2. COc1ccc2c(c1)NC(=O)[C@@H](NC(=O)[C@H](CCC(F)(F)F)[C@H](CCCC(F)(F)F)C(N)=O)N=C2c1ccccc1
3. NC(=O)[C@@H](CCC(F)(F)F)[C@@H](CCC(F)(F)F)C(=O)N[C@H]1N=C(c2ccccc2)c2ccccc2NC1=O

["15%", "100%", "86%"]

Values were extracted from patent US20150284342A1.
